System: pancreatic Langerhans' islet of rats
Measurement Protocol: Insulin secretion promoting action in pancreatic Langerhans' islet of rats
Format: cell-based, rat
Experimental Setup: test compound 100 μmol/L, 7.5 mmol/L glucose, 1 hr incubation; insulin secretion amount relative to control group, amended by DNA amount
Quantity Measured: insulin secretion promoting action (%)
// return numeric value only (unit: %, not printed)

Solved entries (count: 2):
O=C(O)CCc1cnoc1-c1ccc(Cl)c(Cl)c1 [Example 70]    235
O=C(O)CCc1cnoc1-c1ccc(F)c(F)c1 [Example 77]    201

stdin: For O=C(O)CCc1cnoc1-c1ccc(F)c(Cl)c1 [Example 92] , write its insulin secretion promoting action (%).
stdout: 156

stdin: For O=C(O)CCc1cnoc1-c1ccc(Cl)cc1 [Example 8] , write its insulin secretion promoting action (%).
stdout: 256

stdin: For O=C(O)CCc1cnoc1-c1ccc(Cl)s1 [Example 64] , write its insulin secretion promoting action (%).
stdout: 273

====

# melting point per record follows

Solved entries (count: 3):
O=C(O)CCc1cnoc1-c1ccc(Cl)c(F)c1 [Example 108]    139 to 140 °C
O=C(O)CCc1c(-c2ccccc2)noc1O [Example 143]    183 to 184 °C
Cc1noc(-c2ccccc2)c1CCC(N)=O [Example 28]    149 to 151 °C

stdin: For CCNC(=O)CCc1cnoc1-c1ccccc1 [Example 23] , write its melting point.
stdout: 75 to 76 °C

stdin: For Cc1cc(-c2oncc2CCCO)ccc1Cl [Example 97] , write its melting point.
stdout: 50 to 51 °C

stdin: For NC(=O)/C=C/c1cnoc1-c1ccccc1 [Example 25, (E)-3-(5-phenyl-4-isoxazolyl)propenamide] , write its melting point.
stdout: 194 to 196 °C

====

# melting point per record follows

Solved entries (count: 6):
O=C(O)CCc1conc1-c1ccc(F)c(Cl)c1 [Example 114]    140 to 141 °C
O=C(O)CCc1cnoc1-c1ccc(Cl)cc1Cl [Example 69]    106 to 107 °C
O=C(O)CCc1cnoc1-c1ccc(F)cc1 [Example 11]    126 to 127 °C
O=C(O)CCc1cnoc1-c1ccc(-c2ccccc2)cc1 [Example 131]    94 to 95 °C
O=C(O)CCc1conc1-c1ccc(Cl)cc1 [Example 5]    149 to 150 °C
Cc1onc(-c2ccccc2Cl)c1CCC(=O)O [Example 147]    79 to 81 °C

stdin: For O=C(O)CCc1conc1-c1ccc(-c2ccccc2)cc1 [Example 57] , write its melting point.
stdout: 169 to 170 °C

stdin: For O=C(O)CCc1conc1-c1ccc(F)c(Br)c1 [Example 125] , write its melting point.
stdout: 151 to 152 °C

stdin: For CSc1ccc(-c2oncc2CCC(=O)O)cc1 [Example 103] , write its melting point.
stdout: 124 to 125 °C

stdin: For C[S+]([O-])c1ccc(-c2oncc2CCCO)cc1 (centres unmarked) [Example 107] , write its melting point.
stdout: 73 to 74 °C

stdin: For O=C(O)CCc1cnoc1-c1ccc(OC(F)(F)F)cc1 [Example 1] , write its melting point.
stdout: 116 to 118 °C

====

Quantity Measured: melting point

stdin: For Cc1noc(-c2ccccc2)c1/C=C/C(=O)O [Example 136] , write its melting point.
stdout: 173 to 174 °C

stdin: For NC(=O)CCc1conc1-c1ccc(Cl)cc1 [Example 18] , write its melting point.
stdout: 158 to 159 °C

stdin: For O=C(O)CCc1cnoc1-c1cc(Cl)ccc1Cl [Example 98] , write its melting point.
stdout: 103 to 104 °C

stdin: For O=C(O)CCc1conc1-c1ccc(C(F)(F)F)cc1 [Example 140] , write its melting point.
stdout: 173 to 174 °C

stdin: For O=C(O)CCc1cnoc1-c1cc(Cl)c(Cl)s1 [Example 123] , write its melting point.
stdout: 142 to 143 °C

stdin: For Cc1onc(-c2cccc(C(F)(F)F)c2)c1CCC(=O)O [Example 145] , write its melting point.
stdout: 63 to 64 °C

stdin: For O=C(O)CCc1cnoc1-c1ccc(Cl)s1 [Example 64] , write its melting point.
stdout: 138 to 139 °C
